Ref: the supplement of paper PMC9942255

Tested on: Bacillus subtilis DB104 (SP-AmyQ fusion secretion)
Assay comment: AmyQ secretion efficiency, weighted average sort bin (1 = best secretion, 10 = worst) (bin number (weighted average, 1-10)); higher = lower secretion efficiency
Measured quantity: AmyQ secretion efficiency
Please give only the number in your answer, with no unit.

>>> assay_value("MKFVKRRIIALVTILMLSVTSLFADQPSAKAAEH")
3.52
>>> assay_value("MKLSVKIAGVLTVAAAAMIAIATTAKMYATAKGN")
5.63
>>> assay_value("MKVLLSALLLLLFAEEDSASGKKL")
6.1
>>> assay_value("MKSAKSVSALTPSTTLAITAKAKEL")
6.91
>>> assay_value("MAIIIAIIAAVIVIAALITFNVCNASPG")
7.28

// map MKRQCYWTYQSSRQLVLLPGKALGAVD to recorded AmyQ secretion efficiency (system: Bacillus subtilis DB104 (SP-AmyQ fusion secretion)) 8.11

Record: MRFTKVVGFLSVLGLAADEDLTAQAEKA 3.78

Try this sequence too: MKLAKRVSALTPSTTLAIATVLATAKAKEL 6.28

Try this sequence next: MRGKSAVLLSLIMLIAGFLISFMFQM 7.73

---

Test system: Bacillus subtilis DB104 (SP-AmyQ fusion secretion)
Assay comment: AmyQ secretion efficiency, weighted average sort bin (1 = best secretion, 10 = worst) (bin number (weighted average, 1-10)); higher = lower secretion efficiency
The reader will find reported AmyQ secretion efficiency values listed item by item below.

Some entries whose results are on file:
>>> assay_value("MKKQIITATTAVVLGSTLFAGAVSAQSI")
1.69
>>> assay_value("MRPVFPLRRRRRRFLSCFFGARQTEASASKR")
7.47
>>> assay_value("MGMKKKLSLGVASAALGLALVGGGTWNAFN")
6.68
>>> assay_value("MRKKCSVCLWILVLLLSCDSGKSAYAATS")
3.15
>>> assay_value("MKNMSCKTNLVVSVTLFFSFLTIGPLAHAQNS")
1.06

Look at this sequence and give its reported AmyQ secretion efficiency. MYKKFVPFAVFLFLFFVSFRKMRNPHALDY 6.42

---

Test system: Bacillus subtilis DB104 (SP-AmyQ fusion secretion)
Assay comment: AmyQ secretion efficiency, weighted average sort bin (1 = best secretion, 10 = worst) (bin number (weighted average, 1-10)); higher = lower secretion efficiency
Measured quantity: AmyQ secretion efficiency
Number, no unit, nothing else.

>>> assay_value("MKKTIMSFVAVAALSTTAFGAHGVFPASASAKEI")
3.09
>>> assay_value("MNKLKRLSMLTVMIASVFIFSSHALMAQY")
7.08
>>> assay_value("MKRTWNVCLTALLSVLLVAGSVPFHVEAKKP")
2
>>> assay_value("MKKKQVMLALTAAAGLGLTALHPGPSAKAAPL")
1.84

Could you tell me which AmyQ secretion efficiency is on file for MTKKAWFLPLVCVLLISGWLAPAASLSAQTT ? 3.89

---

Each entry below carries its recorded AmyQ secretion efficiency.
System: Bacillus subtilis DB104 (SP-AmyQ fusion secretion)
Assay comment: AmyQ secretion efficiency, weighted average sort bin (1 = best secretion, 10 = worst) (bin number (weighted average, 1-10)); higher = lower secretion efficiency

Consider the following illustrative entries.
>>> assay_value("MKKIWIGMLAAAVLLLMVPKVVLADAA")
3.66
>>> assay_value("MLCVMMLLFSAIAPDPSGAQAKDQ")
4.72

Consider the sequence shown here: MKWMCSICCAAVLLAGGASQAEAV What is its recorded AmyQ secretion efficiency? 3.1
